target: Bcl-2-like protein 1 (Homo sapiens); test: Binding affinity to full length human Bcl-xl expressed in Escherichia coli BL21 (DE3) at 100 uM preincubated for 30 mins followed by 5-FAM-QEDIIIINIARHLAQVGDSMD-RSIPPG tracer addition and measured after 20 mins by fluorescence polarization assay relative to control; details: time 50.0 min
Sequence (Q07817 whole entry): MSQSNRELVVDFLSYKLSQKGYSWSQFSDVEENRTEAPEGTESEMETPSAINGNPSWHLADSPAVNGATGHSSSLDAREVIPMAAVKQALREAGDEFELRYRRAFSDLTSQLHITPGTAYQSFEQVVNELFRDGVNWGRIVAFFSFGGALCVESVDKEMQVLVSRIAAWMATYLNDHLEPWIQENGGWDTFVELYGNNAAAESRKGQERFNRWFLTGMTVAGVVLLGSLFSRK
valueType: inhibition (%)
One number for each entry, in %.

The following molecules have reported results that may help.
givenSmiles	unitsLabel	inhibition
O=C(Nc1ccc(F)cc1)N1CCN(S(=O)(=O)c2sccc2-c2ccccc2Oc2ccc(O)c(O)c2)CC1	%	32
O=C(Nc1cc(C(F)(F)F)cc(C(F)(F)F)c1)N1CCN(S(=O)(=O)c2sccc2-c2ccccc2Oc2ccc(O)c(O)c2)CC1	%	-8
O=S(=O)(c1sccc1-c1ccccc1Oc1ccc(O)c(O)c1)N1CCN(C(=S)Nc2ccc(Cl)cc2)CC1	%	3
COc1ccc(Oc2ccccc2-c2ccsc2S(=O)(=O)N2CCN(C(=S)Nc3cc(C(F)(F)F)cc(C(F)(F)F)c3)CC2)cc1OC	%	29
COc1ccc(Oc2ccccc2-c2ccsc2S(=O)(=O)N2CCN(C(=S)Nc3ccc(Cl)cc3)CC2)cc1OC	%	33

Look at each molecule and report its inhibition.
1. O=[N+]([O-])c1ccc(Oc2ccc(O)c(O)c2)c(-c2ccsc2S(=O)(=O)N2CCN(C(=S)Nc3cc(C(F)(F)F)cc(C(F)(F)F)c3)CC2)c1
2. COc1ccc(Oc2ccccc2-c2ccsc2S(=O)(=O)N2CCN(C(=O)Nc3ccc(F)cc3)CC2)cc1OC
3. COc1ccc(Oc2ccccc2-c2ccsc2S(=O)(=O)N2CCN(C(=O)Nc3cccc([N+](=O)[O-])c3)CC2)cc1OC
4. COc1ccc(Oc2ccc([N+](=O)[O-])cc2-c2ccsc2S(=O)(=O)N2CCN(C(=S)Nc3ccc(Cl)cc3)CC2)cc1OC

Data returned:
1. 14
2. 33
3. 19
4. 37
